# study target: CYP3A4 (Homo sapiens, UniProt P08684)
# Construct: 0.1 mg/mL human liver microsomes; from tissue; host or cells: human liver microsomes
# Sequence (P08684 whole entry): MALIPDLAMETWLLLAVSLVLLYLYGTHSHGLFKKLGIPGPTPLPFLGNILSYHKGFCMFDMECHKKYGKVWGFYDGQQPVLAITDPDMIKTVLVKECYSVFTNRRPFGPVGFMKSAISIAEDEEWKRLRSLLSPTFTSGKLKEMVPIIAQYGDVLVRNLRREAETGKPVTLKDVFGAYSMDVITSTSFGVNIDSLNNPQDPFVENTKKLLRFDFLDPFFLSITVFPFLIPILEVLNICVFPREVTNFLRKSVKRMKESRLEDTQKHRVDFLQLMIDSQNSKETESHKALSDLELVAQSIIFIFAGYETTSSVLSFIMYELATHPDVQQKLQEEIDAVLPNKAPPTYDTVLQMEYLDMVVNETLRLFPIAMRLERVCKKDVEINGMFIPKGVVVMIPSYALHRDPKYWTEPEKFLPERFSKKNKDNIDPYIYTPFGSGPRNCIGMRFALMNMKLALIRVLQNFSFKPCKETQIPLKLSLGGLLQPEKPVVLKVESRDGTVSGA
# assay comment: IC50 against CYP3A4 by inhibition of testosterone metabolism in human liver microsomes
# Assay type: biochemical
# details: 0.1 mg/mL human liver microsomes, 25 μM testosterone, 1 mM NADPH, 6-β-OH-testosterone production, eight minutes; read-out: IC50, μM (HLM, testosterone)
quantity kind: IC50 (µM)

compound smiles: CN(C)[C@H]1CCN(C(=O)Cn2nc(-c3ccncc3)cc2Cc2ccc(F)cc2)C1
result units: µM
observed: 0.0435
//
compound smiles: Cn1ccnc1CNC(=O)Cn1nc(-c2ccncc2)cc1Cc1ccc(F)cc1
result units: µM
observed: 0.019
//
compound smiles: O=C(Cn1nc(-c2ccncc2)cc1Cc1ccc(F)cc1)NCCc1cnccn1
result units: µM
observed: 0.04
//
compound smiles: CN(C(=O)C1CC1)C1CCN(C(=O)Cn2nc(-c3ccncc3)cc2Cc2ccc(F)cc2)CC1
result units: µM
observed: 0.009

----------
# study target: CYP3A4 (Homo sapiens, UniProt P08684)
# Construct: 0.1 mg/mL human liver microsomes; from tissue; host or cells: human liver microsomes
# assay comment: IC50 against CYP3A4 by inhibition of midazolam metabolism in human liver microsomes
# Format: biochemical
# details: 0.1 mg/mL human liver microsomes, 2 μM midazolam, 1 mM NADPH, 1-hydroxymidazolam production, eight minutes; read-out: IC50, μM (HLM, midazolam)
Binarize IC50 at 0.04 µM; below is yes, at or above is no.

compound: Cn1ccnc1CNC(=O)Cn1nc(-c2ccncc2)cc1Cc1ccc(F)cc1
classification: yes
--
compound: CN(C)C(=O)c1noc(Cn2nc(-c3ccncc3)cc2Cc2ccc(F)cc2)n1
classification: no
--
compound: O=C(Cn1nc(-c2ccncc2)cc1Cc1ccc(F)cc1)NCCN1CCOCC1
classification: no
--
compound: CNC(=O)N(C)C1CCN(C(=O)Cn2nc(-c3ccncc3)cc2Cc2ccc(F)cc2)C1 (centres unmarked)
classification: yes
--
compound: Fc1ccc(Cc2cc(-c3ccncc3)nn2C2CN(C(c3ccccc3)c3ccccc3)C2)cc1
classification: no
--
compound: CC(C)(N)CNC(=O)Cn1nc(-c2ccncc2)cc1Cc1ccc(F)cc1
classification: no
--
compound: O=C(Cn1nc(-c2ccncc2)cc1Cc1ccc(F)cc1)N1CCNCC1
classification: no
--
compound: CC(C)OC(=O)NC1CCN(C(=O)Cn2nc(-c3ccncc3)cc2Cc2ccc(F)cc2)CC1
classification: yes
--
compound: COCCn1nc(-c2ccncc2)cc1Cc1ccc(F)cc1
classification: no
--
compound: CN(C1CCN(C(=O)Cn2nc(-c3ccncc3)cc2Cc2ccc(F)cc2)CC1)S(C)(=O)=O
classification: yes
--
compound: CC(C)NC(=O)Cn1nc(-c2ccncc2)cc1Cc1ccc(F)cc1
classification: no
--
compound: CC(=O)N(C)C1CCN(C(=O)Cn2nc(-c3ccncc3)cc2Cc2ccc(F)cc2)C1 (centres unmarked)
classification: yes
--
compound: NC(=O)c1noc(Cn2nc(-c3ccncc3)cc2Cc2ccc(F)cc2)n1
classification: no
--
compound: CN(C(=O)Cn1nc(-c2c[nH]cn2)cc1Cc1ccc(F)cc1)[C@H]1CC[C@H](O)CC1
classification: no
--
compound: CC(C)(O)CNC(=O)Cn1nc(-c2ccncc2)cc1Cc1ccc(F)cc1
classification: yes
--
compound: CS(=O)(=O)NC1CCN(C(=O)Cn2nc(-c3ccncc3)cc2Cc2ccc(F)cc2)CC1
classification: yes
--
compound: CS(=O)(=O)C1CCN(C(=O)Cn2nc(-c3ccncc3)cc2Cc2ccc(F)cc2)CC1
classification: yes

----------
# study target: CYP3A4 (Homo sapiens, UniProt P08684)
# Construct: 0.1 mg/mL human liver microsomes; from tissue; host or cells: human liver microsomes
# assay comment: IC50 against CYP3A4 by inhibition of midazolam metabolism in human liver microsomes
# Assay type: biochemical
# details: 0.1 mg/mL human liver microsomes, 2 μM midazolam, 1 mM NADPH, 1-hydroxymidazolam production, eight minutes; read-out: IC50, μM (HLM, midazolam)
The reader will find reported log10 IC50 values listed item by item below.
quantity kind: log10 IC50 (log10 of the value in µM)

molecule: O=C(Cn1nc(-c2ccncc2)cc1Cc1ccc(F)cc1)N1CCC(N2CCCC2=O)CC1
study target: CYP3A4 (Homo sapiens, UniProt P08684)
log10 IC50: -2.00
--
molecule: CC(C)(CN1CCOCC1)NC(=O)Cn1nc(-c2ccnnc2)cc1Cc1ccc(F)cc1
study target: CYP3A4 (Homo sapiens, UniProt P08684)
log10 IC50: -1.08
--
molecule: Cc1noc(Cn2nc(-c3ccncc3)cc2Cc2ccc(F)cc2)n1
study target: CYP3A4 (Homo sapiens, UniProt P08684)
log10 IC50: -1.03
--
molecule: CS(=O)(=O)N1CC(n2nc(-c3ccncc3)cc2Cc2ccc(F)cc2)C1
study target: CYP3A4 (Homo sapiens, UniProt P08684)
log10 IC50: -0.43
--
molecule: O=C(Cn1nc(-c2ccncc2)cc1Cc1ccc(F)cc1)N1CCC(N2CCCS2(=O)=O)CC1
study target: CYP3A4 (Homo sapiens, UniProt P08684)
log10 IC50: -1.77
--
molecule: CS(=O)(=O)NC1CCN(C(=O)Cn2nc(-c3c[nH]cn3)cc2Cc2ccc(F)cc2)CC1
study target: CYP3A4 (Homo sapiens, UniProt P08684)
log10 IC50: -0.78
--
molecule: O=C(Cn1nc(-c2ccncc2)cc1Cc1ccc(F)cc1)N1CC(N2CCOCC2)C1
study target: CYP3A4 (Homo sapiens, UniProt P08684)
log10 IC50: -1.35
--
molecule: O=C(Cn1nc(-c2ccncc2)cc1Cc1ccc(F)cc1)N1CCC[C@H]1CO
study target: CYP3A4 (Homo sapiens, UniProt P08684)
log10 IC50: -1.29
--
molecule: Cc1noc(CNC(=O)Cn2nc(-c3ccncc3)cc2Cc2ccc(F)cc2)n1
study target: CYP3A4 (Homo sapiens, UniProt P08684)
log10 IC50: -1.72
--
molecule: Cc1cc(CNC(=O)Cn2nc(-c3ccncc3)cc2Cc2ccc(F)cc2)on1
study target: CYP3A4 (Homo sapiens, UniProt P08684)
log10 IC50: -1.74
--
molecule: CNC1CCN(C(=O)Cn2nc(-c3ccncc3)cc2Cc2ccc(F)cc2)C1 (stereo not drawn)
study target: CYP3A4 (Homo sapiens, UniProt P08684)
log10 IC50: -1.34
--
molecule: O=C(Cn1nc(-c2ccncc2)cc1Cc1ccc(F)cc1)NC1CCS(=O)(=O)C1 (stereo not drawn)
study target: CYP3A4 (Homo sapiens, UniProt P08684)
log10 IC50: -1.85
--
molecule: CC(=O)N[C@@H]1CCN(C(=O)Cn2nc(-c3ccncc3)cc2Cc2ccc(F)cc2)C1
study target: CYP3A4 (Homo sapiens, UniProt P08684)
log10 IC50: -1.36
--
molecule: O=C(CCN1CCOCC1)N1CC(n2nc(-c3ccncc3)cc2Cc2ccc(F)cc2)C1
study target: CYP3A4 (Homo sapiens, UniProt P08684)
log10 IC50: -1.38
--
molecule: CNC(=O)NC1CN(C(=O)Cn2nc(-c3ccncc3)cc2Cc2ccc(F)cc2)C1
study target: CYP3A4 (Homo sapiens, UniProt P08684)
log10 IC50: -1.47

----------
# study target: CYP3A4 (Homo sapiens)
# Construct: 0.1 mg/mL human liver microsomes; from tissue; host or cells: human liver microsomes
# assay comment: IC50 against CYP3A4 by inhibition of testosterone metabolism in human liver microsomes
# Format: biochemical
# details: 0.1 mg/mL human liver microsomes, 25 μM testosterone, 1 mM NADPH, 6-β-OH-testosterone production, eight minutes; read-out: IC50, μM (HLM, testosterone)
Binarize IC50 at 0.03 µM; below is Fulfilled, at or above is Not fulfilled.

compound: CC(=O)N(C)C1CCN(C(=O)Cn2nc(-c3c[nH]cn3)cc2Cc2ccc(F)cc2)CC1
study target: CYP3A4 (Homo sapiens)
classification: Not fulfilled
//
compound: O=C(NC1CCN(C(=O)Cn2nc(-c3ccncc3)cc2Cc2ccc(F)cc2)CC1)C1CCC1
study target: CYP3A4 (Homo sapiens)
classification: Fulfilled
//
compound: CNC(=O)NC1CCN(C(=O)Cn2nc(-c3ccncc3)cc2Cc2ccc(F)cc2)CC1
study target: CYP3A4 (Homo sapiens)
classification: Fulfilled
//
compound: CC(C)NC(=O)Cn1nc(-c2ccncc2)cc1Cc1ccc(F)cc1
study target: CYP3A4 (Homo sapiens)
classification: Fulfilled
//
compound: CS(=O)(=O)NC1CCN(C(=O)Cn2nc(-c3ccncc3)cc2Cc2ccc(F)cc2)CC1
study target: CYP3A4 (Homo sapiens)
classification: Not fulfilled
//
compound: O=C(Cn1nc(-c2ccncc2)cc1Cc1ccc(F)cc1)N1CCCC(O)C1 (stereo not drawn)
study target: CYP3A4 (Homo sapiens)
classification: Not fulfilled
